# procedure-details: P-glycoprotein substrates identified in KB-8-5-11 adenocarcinoma cell line, qHTS therapeutic library screen (AID 1346987); further: nearly all actives have a fitted effect of over 65% in size
# condition-info: KB-8-5-11 (P-gp overexpressing) viability, CellTiter-Glo, 72 h; series mostly up to 44.5 µM
Inconclusive results are not listed. Activity calls are given as the source filed them. The call rests on the fitted dose curve; in most records, active means well fitted inhibition curve with a large enough effect; inconclusive means small, poorly fitted or top-dose-only effect; inactive means flat fitted curve, though single readings scatter.
Response enum: true = active, false = inactive

Worked examples, 5 compounds total:
compound | category-label
CC1=CC(=O)[C@H]2C(C)(C)CCC[C@]2(C)[C@@]1(O)CO | false
Cc1[nH]c2ccccc2c1CCNC(=O)c1ccccc1F | false
COC(=O)N[C@@H](C)CNc1nccc(-c2cn(C(C)C)nc2-c2cc(Cl)cc(NS(C)(=O)=O)c2F)n1 | false
Cc1c2cc(c(C(=O)O)c1C)OC1OC(C(O)C(O)C1O)C(O)C(O)C1OC(O2)C(O)C(O)C1O (centres undefined) | false
CC1CCC2(C(=O)O)CCC3(C)C(=CCC4C5(C)CCC(O)C(C)(CO)C5CCC43C)C2C1(C)O (centres undefined) | false

Q: Assay result, entry `Cc1cc(OCc2nc(-c3ccccc3Cl)cs2)ccc1OCC(=O)O` — outcome?
A: false

Q: Follow-up entry: C[C@H](C/C=C/C(C)(C)O)[C@H]1CC[C@@]2(C)[C@@H]3[C@@H](O[C@@H]4O[C@H](CO)[C@@H](O)[C@H](O)[C@H]4O)C=C4C(CC[C@H](O)C4(C)C)[C@]3(C=O)CC[C@]12C (some centres undefined)
A: false

Q: Follow-up entry: `O=C1N=C(N2CCOCC2)CN1c1ccc(Cl)cc1`
A: false

Q: Follow-up entry: CC1CCC2C(C)(C)[C@@H](O)CC[C@]2(C)C12Cc1c(O)cc3c(c1O2)CN(C(CCC(=O)O)C(=O)O)C3=O (some centres undefined)
A: false

Q: Follow-up entry: C=C1CCC2C(C)(C(=O)O)CCCC2(C)C1CCC(C)CC(=O)O (centres undefined)
A: false

Q: Follow-up entry: `COc1ncc(Nc2ncc([C@H](C)N3CCN(S(C)(=O)=O)CC3)cc2-c2nc(C)nc(N)n2)cc1F`
A: true

Q: Follow-up entry: `Cc1ccc(C(=O)Nc2noc3ccccc23)cc1`
A: false

Q: Follow-up entry: C=C(C)C1CCC(C)C12CC(O)C1(C)OC1C2OC(=O)C(N)CCC(=O)O (centres undefined)
A: false

Q: Follow-up entry: Cn1c(=O)cc(N2CCCC(N)C2)n(Cc2cc(F)ccc2C#N)c1=O (centres undefined)
A: false

###

# procedure-details: Primary fluorescence-based thiol-reactive (MSTI) qHTS assay for identification of artifact compounds. (AID 1845221); further: nearly all actives have a fitted effect of over 65% in size
# condition-info: MSTI thiol-reactivity probe, 1 h; series mostly up to 53.8 µM
Results filed as inconclusive are left out. The source made the active and inactive calls. Calls come from the whole dose curve; as a rule, active = well fitted inhibition curve with a large enough effect; inconclusive = small, poorly fitted or top-dose-only effect; inactive = no such curve, though single readings can be large or run the other way.
Response enum: class 1 for active, class 0 for inactive

Worked examples, 8 compounds total:
compound | category-label
O=C(Nc1ccn[nH]1)c1c(F)cccc1F | class 0
C=CC(=O)Nc1cc(Nc2nccc(-c3c[nH]c4ccccc34)n2)c(OC)cc1N(C)CCN(C)C | class 1
CC1CC2OC3(OC2C(C)(C)O)C1C1(C)CCC24CC25CCC(O[C@@H]2OC[C@@H](O)[C@H](O)[C@H]2O)C(C)(C)C5CC=C4C1(C)C3O (some centres undefined) | class 0
CC(C)(C)NS(=O)(=O)c1cncc(-c2cc(F)c3nc(N)nn3c2)c1 | class 0
COC(C(=O)N1Cc2[nH]nc(NC(=O)c3ccc(N4CCN(C)CC4)cc3)c2C1)c1ccccc1 (centres undefined) | class 0
O=C(c1ccccc1)c1ccc2nc(NC(=O)c3csc(C4CCN(c5ncnc6ccsc56)CC4)n3)[nH]c2c1 | class 0
COc1ccc([C@@]2(O)c3c(ccc(CC=C(C)C)c3O)NC(=O)[C@@H]2OC)cc1 | class 0
CC(C)c1cc(C(=O)N2CC[C@H](NC(=O)C3CC3)C2)n[nH]1 | class 0

Moving on to another compound below.
Q: Assay result, entry `Cc1cccc2c1NC(=O)C2(c1ccc(O)cc1)c1ccc(O)cc1` — outcome?
A: class 0

###

# Tested on: PA-1
# procedure-details: Primary qHTS to identify gynecologic anti-cancer compounds using libraries of approved drugs and bioactive compounds (AID 1345084); further: nearly all actives have a fitted effect of over 55% in size
# condition-info: Gynecologic cancer cell panel viability, ATPlite luminescence, 48 h; series mostly up to 57.5 µM
Results filed as inconclusive are left out. The source made the active and inactive calls. Calls come from the whole dose curve; as a rule, active = well fitted cell-killing curve with a large enough effect; inconclusive = small, poorly fitted or top-dose-only effect, or effect the other way; inactive = flat fitted curve, though single readings scatter.
Response enum: true (active), false (inactive)

compound | category-label
CCOC(=O)CCN(C(=O)c1ccc2c(c1)nc(CNc1ccc(C(=N)N)cc1)n2C)c1ccccn1 | false
CCOc1ccc(S(=O)(=O)n2c(C)nc3ccccc32)cc1 | false
COC(=O)C12CCC(C)C(C)C1C1=CCC3C4(C)CCC(OC(C)=O)C(C)(C)C4CCC3(C)C1(C)CC2 (stereo unspecified) | false
COC(=O)c1c(C)cc(OC(=O)c2c(C)cc(OC)cc2OC)cc1O[C@@H]1O[C@H](CO)[C@@H](O)[C@H](O)[C@H]1O | false
NC1CCCCN(c2c(F)cc3c(=O)c(C(=O)O)cn(C4CC4)c3c2Cl)C1 (stereo unspecified) | false
CNC(C)C(=O)NC(C(=O)N1CCCC1c1nc(C(=O)c2ccc(F)cc2)cs1)C1CCCCC1 (stereo unspecified) | false
COC(=O)CCSCc1ccc(-c2onc(C)c2NC(=O)OC(C)c2ccccc2Cl)cc1 (stereo unspecified) | false
CC1(C)C=CN2C(=O)C3=CCCN3C(=O)[C@@H]2C[C@@]12Nc1ccccc1C2=O | false

Q: Assay result, entry `CC(=O)OC[C@@]12C(=O)C[C@@H](C)[C@]3(C[C@@H](c4ccoc4)O[C@H]3OC(C)=O)[C@H]1CCC[C@]21CO1` — outcome?
A: false

Q: Follow-up entry: CNS(=O)(=O)CC1CCC(N(C)c2ncnc3[nH]ccc23)CC1 (stereo unspecified)
A: false

Q: Follow-up entry: C/C(=C\CC[C@@H](C)[C@H]1CC(O)[C@@]2(C)C3CC[C@H]4C(C)(C)[C@@H](OC5OCC(O)C(O)C5OC5OC(CO)C(O)C(O)C5O)CC[C@@]45C[C@@]35CC(O)[C@]12C)C(=O)O (stereo partly specified)
A: false

Q: Follow-up entry: `COc1cc(OC)c(/C=C/S(=O)(=O)Cc2ccc(OC)c(NCC(=O)O)c2)c(OC)c1`
A: true

Q: Follow-up entry: `CS(=O)(=O)c1ccc([C@H](CC2CCCC2)C(=O)Nc2nccs2)cc1`
A: false

Q: Follow-up entry: `O=C(/C=C\c1ccc(O)cc1)N[C@@H](Cc1ccc(O)cc1)C(=O)O`
A: false

Q: Follow-up entry: CC1(C)CC[C@]2(C(=O)O[C@@H]3O[C@H](CO)[C@@H](O)[C@H](O)[C@H]3O)CC[C@]3(C)C(=CCC4[C@@]5(C)C[C@@H](O)[C@H](O)C(C)(C)C5[C@H](O)C[C@]43C)[C@@H]2[C@@H]1O (stereo partly specified)
A: false

Q: Follow-up entry: C[C@@H]1CC[C@]2(C(=O)O)CC[C@]3(C)C(=CCC4[C@@]5(C)CC[C@H](O)C(C)(C)C5C(O)C[C@]43C)[C@@H]2[C@]1(C)O (stereo partly specified)
A: false

###

# System: NIH3T3
# procedure-details: Cytotoxic Profiling of Annotated Libraries Using Quantitative High-Throughput Screening (AID 1296008); further: on the % scale 0 is the no-effect control and ±100 the full control effect; nearly all actives have a fitted effect of over 60% in size
# condition-info: Five cell lines viability, CellTiter-Glo ATP luminescence, 48-72 h; hits give low values
Inconclusive results are not listed.
experimental-readout: max response (%)
Write the value in % as a bare number.

Q: What value of max response has been recorded for this entry: `Cc1cc(C(N)=O)ccc1-n1c(CCC(=O)O)ccc1-c1ccc(-n2ccnc2)cc1`
A: -2.74

###

# Tested on: PA-1
# procedure-details: Primary qHTS to identify gynecologic anti-cancer compounds using libraries of approved drugs and bioactive compounds (AID 1345084); further: nearly all actives have a fitted effect of over 55% in size
# condition-info: Gynecologic cancer cell panel viability, ATPlite luminescence, 48 h; series mostly up to 57.5 µM
Records with an inconclusive call do not appear. Calls of active or inactive are those of the source. Calls follow the shape of the dose curve; as a rule, active = well fitted cell-killing curve with a large enough effect; inconclusive = small, poorly fitted or top-dose-only effect, or effect the other way; inactive = flat fitted curve, though single readings scatter.
Response enum: 1 (yes) = active, 0 (no) = inactive

Q: Assay result, entry CC(C)=CCC(O)/C(C)=C/CO[C@@H]1O[C@H](CO)[C@@H](O)[C@H](O)[C@H]1O (stereo not given in full) — outcome?
A: 0 (no)

Q: Follow-up entry: Cc1cnc(Nc2ccc(F)cc2Cl)nc1-c1c[nH]c(C(=O)NC(CO)c2cccc(Cl)c2)c1 (stereo not given)
A: 1 (yes)

Q: Follow-up entry: C=C1C(=O)O[C@@H]2C[C@H](C)[C@@]3(O)C=C(C(C)=O)[C@]4(CC3C[C@H]12)C(=O)O[C@H]1C[C@@H](C)C(CCC(C)=O)=CC[C@H]14 (stereo not given in full)
A: 0 (no)

Q: Follow-up entry: `C[C@@]12C[C@]3(O)O[C@H](O1)[C@]1(COC(=O)c4ccccc4)[C@H]3C[C@@]12O[C@@H]1O[C@H](CO)[C@@H](O)[C@H](O)[C@H]1O`
A: 0 (no)

Q: Follow-up entry: `COc1cc(O)cc(/C=C/c2ccc(O[C@@H]3O[C@H](CO)[C@@H](O)[C@H](O)[C@H]3O)cc2)c1`
A: 0 (no)

Q: Follow-up entry: COC(=O)CC(C)(O)CC(=O)OCc1ccc(O[C@@H]2O[C@H](CO)[C@@H](O)[C@H](O)[C@H]2O)cc1 (stereo not given in full)
A: 0 (no)

Q: Follow-up entry: COc1ccc(C2(O)c3ccccc3NC(=O)C2O)cc1 (stereo not given)
A: 0 (no)

Q: Follow-up entry: CC(C)C(NC(=O)c1ccc2ccccc2n1)C(=O)NC(CC(=O)O)C(=O)COc1c(F)cccc1F (stereo not given)
A: 0 (no)

Q: Follow-up entry: `C=C1CC[C@@H]2[C@](C)(CO[C@@H]3O[C@H](CO)[C@@H](O)[C@H](O)[C@H]3O)[C@H](O)CC[C@@]2(C)[C@@H]1C/C=C1/C(=O)OC[C@H]1O`
A: 0 (no)

Q: Follow-up entry: `C/C=C1\[C@H](O[C@@H]2O[C@H](CO)[C@@H](O)[C@H](O)[C@H]2O)OC=C2C(=O)OCCc3ccc(O)c(c3)Oc3ccc(cc3)CCOC(=O)C[C@H]21`
A: 0 (no)

Q: Follow-up entry: `COc1ccc(/C=C/C(=O)O[C@@H]2[C@@H](O)[C@@H](O)[C@H](O[C@@H]3C=C(CO)[C@H]4[C@H](O[C@@H]5O[C@H](CO)[C@@H](O)[C@H](O)[C@H]5O)OC=C[C@H]43)O[C@H]2C)cc1O`
A: 0 (no)

Q: Follow-up entry: CCCOC(c1cc2nccc(C(=O)O)c2[nH]1)c1ccccc1Cl (stereo not given)
A: 0 (no)

Q: Follow-up entry: OC[C@H]1O[C@@H](OC(CCCCc2ccc(O)cc2)CCc2ccc(O)cc2)[C@H](O)[C@@H](O)[C@@H]1O (stereo not given in full)
A: 0 (no)

Q: Follow-up entry: C=C1CC23CC1CCC2C12OC(=O)C(C)(CCC1O)C2C3C(=O)O (stereo not given)
A: 0 (no)

Q: Follow-up entry: `CO[C@H]1/C=C\O[C@@]2(C)Oc3c(C)c(O)c4c(O)c(c5c(nc6cc(C)ccn65)c4c3C2=O)NC(=O)/C(C)=C\C=C/[C@H](C)[C@H](O)[C@@H](C)[C@@H](O)[C@@H](C)[C@H](OC(C)=O)[C@@H]1C`
A: 0 (no)
